Several publications report IC50 on JNK1α1 (Homo sapiens); those values are gathered here.

Record excerpt, results attached:
- CCCCNC(=O)Nc1cccc(Cc2c[nH]c3ncc(-c4cccnc4)cc23)c1: ≤ 10 µM
- C[C@@H]1CC[C@@H](Nc2cc(NC3CCC(O)CC3)ncc2C(N)=O)C[C@H]1O (some centres unmarked): 0.5 to 1 µM
- N#Cc1csc(NC(=O)Cn2c(=O)ccc3cc(C(F)(F)F)ccc32)c1-c1cncs1: 0.1 to 10 µM

Tell me the measured IC50 of `O=C(CN1C(=O)CCc2ccccc21)Nc1sccc1-c1ncn[nH]1` , please.
< 0.1 µM

// repeat for `COc1cccc(C(=O)NCc2ccc(S(=O)(=O)N3CCC(NCc4ccc(C(F)(F)F)cc4)CC3)s2)c1` and report
0.1 to 0.7 µM

Also check `Cc1nc2c(cnn2-c2csc(C(=O)NC3(C)COC3)c2)cc1Nc1ccccc1Cl`
> 1 µM

Repeat for the following compound: `O=C(Cc1cc(F)cc2ncccc12)Nc1scc(Br)c1-c1ncn[nH]1`
< 0.1 µM

====

Collected set of pIC50 measured with JNK1α1 (Homo sapiens, UniProt P45983) across studies.
pIC50: −log10 of the molar value.

Requested read-out: pIC50. Entry: `C[C@@H]1CC[C@@H](Nc2nc(Nc3ccc(S(C)(=O)=O)cc3)ncc2C(N)=O)C[C@H]1O`
> 7.00

Now consider `COc1ccc(CC(=O)Nc2scc(C)c2-c2nc(C)n[nH]2)cc1` .
5.00 to 7.00

Thanks! And `O=C(CN1C(=O)C(F)(F)c2ccccc21)Nc1scc(Br)c1-c1nnc[nH]1` ?
> 7.00

Quick one: `O=C(Cc1cccc2cnccc12)Nc1scc(Cl)c1-c1ncn[nH]1`
> 7.00

Same thing, different compound: `O=C(Nc1ccccc1)Nc1cccc(C(=O)c2c[nH]c3ncc(-c4cccnc4)cc23)c1`
≥ 5.00

====

// read-out pIC50, gathered for JNK1α1 (Homo sapiens, UniProt P45983) from published studies
Quick note: pIC50 means taking -log10 of the concentration in moles per liter.

Previously resolved entries follow.
• CC(C)CN(CC(=O)NCCCCCCNC(=O)c1ccc(-c2n[nH]c3ccccc23)cc1)C(=O)CNC(=O)c1ccc2c(c1)OCCO2 = 6.16
• COC(=O)c1c(Cc2ccc(C(=O)N[C@@H]3[C@@H]4C[C@@H]5C[C@H]3C[C@@](NC(=O)C(C)(C)O)(C5)C4)cc2)c(=O)c2ccc(Cl)cc2n1-c1ccccc1 = 7.38
• N#CCC(=O)N1CCN(c2cccc3c2ccn3-c2ccnc(N[C@H]3CC[C@H](CN4CC[C@@H](O)C4)CC3)n2)CC1 = 8.38

// switching to the query molecule
Any idea what pIC50 was measured for `O[C@H]1CC[C@H](Nc2nccc(-n3ccc4c(N5CCCCC5)cccc43)n2)CC1` ?
7.03

====

IC50 values for JNK1α1 (Homo sapiens) compiled from several publications are listed below.

* Cc1cc(OC[C@@H]2CCc3nc(-c4ccc(F)cc4)c(-c4ccnc(NC5CCC5)n4)n32)c2ccccc2n1 | 0.078 µM
* Cn1cc(-c2cnc3[nH]cc(C(=O)c4c(F)ccc(NS(=O)(=O)c5cccc(OC(F)F)c5)c4F)c3c2)cn1 | ≤ 10 µM
* CC(C)c1n[nH]c(-c2c(Cl)csc2NC(=O)CN2C(=O)CCc3ncccc32)n1 | < 0.1 µM
* O=C(Cc1ccc(OCCCN2CCCCC2)cc1)Nc1ccsc1-c1cscn1 | 0.1 to 10 µM

// moving on: another record for IC50
Please provide the recorded IC50 for `Cc1cn2c(CC(=O)Nc3scc(Br)c3-c3ncn[nH]3)csc2n1` , tested on JNK1α1 (Homo sapiens).
< 0.1 µM
